Catalogue of binders with associated Kd
Biological target: T1, Human ST2 (human, UniProt Q01638 19-328, limits assumed)
T1 construct: also called human ST2 protein; Interleukin 1 receptor-like 1
T1 sequence (looked up): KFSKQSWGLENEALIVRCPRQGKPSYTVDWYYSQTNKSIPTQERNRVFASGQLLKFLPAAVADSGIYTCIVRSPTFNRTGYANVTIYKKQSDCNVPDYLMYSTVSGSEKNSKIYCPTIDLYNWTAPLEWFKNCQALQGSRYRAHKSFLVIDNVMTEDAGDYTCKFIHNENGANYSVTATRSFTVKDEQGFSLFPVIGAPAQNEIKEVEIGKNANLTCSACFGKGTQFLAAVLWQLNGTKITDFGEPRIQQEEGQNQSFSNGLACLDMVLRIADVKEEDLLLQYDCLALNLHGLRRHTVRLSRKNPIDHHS
Test: SPR (Carterra), antibody immobilized, ST2 analyte

binder | Kd
Human ST2 IgG1 Antibody 37 (antibody, V domains shown, IgG1; also called ST2 Antibody 37) VH: EVQLLESGGGLVQPGGSLRLSCAASGFTFTDAWMNWVRQAPGKGLEWVSTISVSVGVTYYADSVKGRFTISRDNSKNTLYLQMNSLRAEDTAVYYCATIGSMATIRKGATDAFDIWGQGTLVTVSS VL: DIQMTQSPSSLSASVGDRVTITCRASQRINSYLNWYQQKPGKAPKLLIYAASTLQSGVPSRFSGSGSGTDFTLTISSLQPEDFATYYCQQSYSTPPTFGGGTKVEIKR | 138 nM
Human ST2 IgG1 Antibody 66 (antibody, V domains shown, IgG1; also called ST2 Antibody 66) VH: QVQLVQSGAEVKKPGSSVKVSCKASGGTFSSNAISWVRQAPGQGLEWMGGIIPIFGTANYAQKFQGRVTITADESTSTAYMELSSLRSEDTAVYYCAGSPTGTPRVVFDYWGQGTLVTVSS VL: DIVMTQSPLSLPVTPGEPASISCRSSQSLLHSNGYNYLDWYLQKPGQSPQLLIYAASSLQSGVPDRFSGSGSGTDFTLKISRVEAEDVGVYYCMQALQTPITFGQGTRLEIKR | 176 nM
Human ST2 IgG1 Antibody 23 (antibody, V domains shown, IgG1; also called ST2 Antibody 23) VH: EVQLLESGGGLVKPGGSLRLSCAASGFTFSSYWMHWVRQAPGKGLEWVSSISSRSSYIYYADSVKGRFTISRDDSKNTLYLQMNSLKTEDTAVYYCAREGNGMDVWGQGTTVTVSS VL: DIQMTQSPSSLSASVGDRVTITCQASQDIGSYLNWYQQKPGKAPKLLIYAASSLQSGVPSRFSGSGSGTDFTLTISSLQPEDFATYYCLQSYSTPFTFGGGTKVEIKR | 688 nM
Human ST2 IgG1 Antibody 42 (antibody, V domains shown, IgG1; also called ST2 Antibody 42) VH: QVQLVQSGAEVKKPGASVKVSCKASGYTFNSHWVHWVRQAPGQGLEWMGWISAYNGNTNYAQKLQGRVTMTRDTSTSTVYMELSSLRSEDTAVYYCASGDYPYYYYGMDVWGQGTTVTVSS VL: DIQMTQSPSSLSASVGDRVTITCRASQGVANWLAWYQQKPGKAPKLLIYSASNLQSGVPSRFSGSGSGTDFTLTISSLQPEDFATYYCQQSSSFPLTFGQSTRLEIKR | 278 nM
Human ST2 IgG1 Antibody 81 (antibody, V domains shown, IgG1; also called ST2 Antibody 81) VH: EVQLLESGGGLVKPGGSLRLSCAASGFTFSSYWMSWVRQAPGKGLEWVSSISSSGNYMYYAVSVKGRFTISRDDSKNTLYLQMNSLKTEDTAVYYCATETYSYSSMDVWGQGTTVTVSS VL: DIQMTQSPSSLSASVGDRVTITCRASQSISSYLNWYQQKPGKAPKLLIYDASNLETGVPSRFSGSGSGTDFTLTISSLQPEDFATYYCQQSYGTPLTFGGGTKVDIKR | 126 nM
